System: Rhizomucor miehei
Assay: Antifungal activity in vitro, resazurin growth inhibition: Rhizomucor miehei (IHEM13391)
Format: cell-based
Measured Inf. K: Rhizomucor miehei IHEM13391, pIC50 of individual entries
measure-name: Inf. K: Rhizomucor miehei IHEM13391, pIC50

- line-notation: "Clc1cccc2c1CN=C(c1cnc3c(c1)CCC3)c1cccn1-2"
  result-value: 4.23
- line-notation: "Clc1cc(C2=NCc3c(Cl)cccc3-n3cccc32)cnc1Cl"
  result-value: "<4.19"
- line-notation: "FC(F)(F)c1ccc(C2=NCc3c(Cl)cc(Cl)cc3-n3cccc32)cn1"
  result-value: "<4.19"
- line-notation: "Clc1cccc2c1-n1cccc1C(c1cc3ccccc3s1)=NC2"
  result-value: 5.10
- line-notation: "FC(F)(F)c1ccc(C2=NCc3ccccc3-n3cccc32)cn1"
  result-value: "<4.19"
- line-notation: "CC(F)(F)c1ccc(C2=NCc3c(F)cc(F)cc3-n3cccc32)cn1"
  result-value: "<4.19"
- line-notation: "CC(F)(F)c1ccc(C2=NCc3c(Cl)cccc3-n3cccc32)cn1"
  result-value: "<4.19"
- line-notation: "Fc1ccc2oc(C3=NCc4ccc(Cl)cc4-n4cccc43)cc2c1"
  result-value: "<4.19"

---

Test system: Trichophyton rubrum
Assay: Antifungal activity in vitro, resazurin growth inhibition: Trichophyton rubrum (B68183)
Assay type: cell-based
Measured Inf. C: Trichophyton rubrum B68183, pIC50 of individual entries
measure-name: Inf. C: Trichophyton rubrum B68183, pIC50

- compound: "Cc1ccc2cc(C3NCc4c(Cl)cccc4-n4cccc43)oc2c1.Cl (racemic)"
  comparative-sign: "="
  result-value: 5.15
- compound: "Fc1cc(F)c2c(c1)-n1cccc1C(c1ccc3occ(Cl)c3c1)=NC2"
  comparative-sign: "<"
  result-value: 4.19
- compound: "COc1cccc2cc(C3NCc4c(Cl)cc(Cl)cc4-n4cccc43)oc12.Cl (racemic)"
  comparative-sign: "="
  result-value: 4.30
- compound: "COc1ccc2oc(C3=NCc4ccc(Cl)cc4-n4cccc43)cc2c1"
  comparative-sign: "="
  result-value: 5.35
- compound: "Cc1cccc2c1CN=C(c1cc3ccccc3o1)c1cccn1-2"
  comparative-sign: "="
  result-value: 7.52
- compound: "Cc1ccc2oc(C3=NCc4ccc(Cl)cc4-n4cccc43)cc2c1"
  comparative-sign: "="
  result-value: 5.91
- compound: "Cc1cccc2c1CNC(c1cc3ccccc3o1)c1cccn1-2.Cl (racemic)"
  comparative-sign: "="
  result-value: 6.10
- compound: "FC(F)(F)c1ncc(C2=NCc3c(Cl)cccc3-n3cccc32)cn1"
  comparative-sign: "="
  result-value: 6.84
- compound: "CCc1ccc(C2=NCc3c(Cl)cc(Cl)cc3-n3cccc32)cn1"
  comparative-sign: "="
  result-value: 5.75

---

System: Scedosporium apiospermum
Assay: Antifungal activity in vitro, resazurin growth inhibition: Scedosporium apiospermum (IHEM3817)
Type: cell-based
Measured Inf. H: Scedosporium apiospermum IHEM3817, pIC50 of individual entries
measure-name: Inf. H: Scedosporium apiospermum IHEM3817, pIC50

- compound: "Clc1cc(Cl)c2c(c1)-n1cccc1C(c1cc3ccccc3o1)=NC2"
  comparative-sign: "="
  result-value: 4.19
- compound: "Fc1cccc2cc(C3=NCc4c(Cl)cccc4-n4cccc43)sc12"
  comparative-sign: "="
  result-value: 5.63
- compound: "CC(=O)c1ccc(C2=NCc3c(F)cc(F)cc3-n3cccc32)cn1"
  comparative-sign: "<"
  result-value: 4.19
- compound: "Clc1ccc2c(c1)-n1cccc1C(c1ccncc1)=NC2"
  comparative-sign: "<"
  result-value: 4
- compound: "Clc1cccc2c1CN=C(c1cc3ccccc3s1)c1cccn1-2"
  comparative-sign: "<"
  result-value: 4.19
- compound: "Fc1cc(F)c2oc(C3=NCc4c(Cl)cccc4-n4cccc43)cc2c1"
  comparative-sign: "<"
  result-value: 4.19
- compound: "Fc1cc(F)c2c(c1)-n1cccc1C(c1ccc3sccc3c1)=NC2"
  comparative-sign: "="
  result-value: 5.54
- compound: "Cc1cccc2c1-n1cccc1C(c1cc3ccccc3o1)=NC2"
  comparative-sign: "="
  result-value: 4.80
- compound: "Fc1cc(F)c2c(c1)-n1cccc1C(c1cc3cc(Cl)cnc3o1)=NC2"
  comparative-sign: "="
  result-value: 4.37
- compound: "Cl.Clc1cccc2c1CNC(c1cc3ccccc3o1)c1cccn1-2 (racemic)"
  comparative-sign: "="
  result-value: 4.94
- compound: "COc1ccc2oc(C3=NCc4c(Cl)cccc4-n4cccc43)cc2c1"
  comparative-sign: "<"
  result-value: 4.19
- compound: "Clc1cccc2c1CN=C(c1ccc3ncsc3c1)c1cccn1-2"
  comparative-sign: "<"
  result-value: 4.19
- compound: "Clc1cccc2c1CN=C(c1ccc3occ(Cl)c3c1)c1cccn1-2"
  comparative-sign: "="
  result-value: 4.28
- compound: "Clc1cccc2c1CN=C(c1cc3cccc(Cl)c3o1)c1cccn1-2"
  comparative-sign: "="
  result-value: 5.45
- compound: "CC(F)(F)c1ccc(C2=NCc3c(Cl)cc(Cl)cc3-n3cccc32)cn1"
  comparative-sign: "="
  result-value: 5.31
- compound: "CC(F)(F)c1ccc(C2=NCc3c(F)cccc3-n3cccc32)cn1"
  comparative-sign: "<"
  result-value: 4.19
- compound: "FC(F)(F)c1ccc(C2=NCc3c(Cl)cccc3-n3cccc32)cn1"
  comparative-sign: "<"
  result-value: 4.19
- compound: "Cc1cccc2c1-n1cccc1C(c1cc3ccccc3s1)NC2.Cl (racemic)"
  comparative-sign: "="
  result-value: 4.86
- compound: "Cc1cccc2c1CN=C(c1ccc3ncsc3c1)c1cccn1-2"
  comparative-sign: "<"
  result-value: 4.49
- compound: "Clc1ccc2c(c1)-n1cccc1C(c1cc3ccccc3s1)=NC2"
  comparative-sign: "="
  result-value: 4.33
- compound: "Clc1ccc2c(c1)-n1cccc1C(c1cnc3ccccc3c1)=NC2"
  comparative-sign: "="
  result-value: 5.00
- compound: "Clc1cccc2c1CN=C(c1ccc3ccccc3n1)c1cccn1-2"
  comparative-sign: "<"
  result-value: 4
- compound: "Clc1ccc2c(c1)-n1cccc1C(c1ccc3nc[nH]c3c1)=NC2"
  comparative-sign: "<"
  result-value: 4
- compound: "Clc1cccc2c1-n1cccc1C(c1ccc3ncsc3c1)=NC2"
  comparative-sign: "="
  result-value: 4.78
- compound: "Clc1cccc2c1-n1cccc1C(c1cc3ccccc3s1)=NC2"
  comparative-sign: "="
  result-value: 5.72
- compound: "Clc1cccc2c1CN=C(c1cccnc1)c1cccn1-2"
  comparative-sign: "<"
  result-value: 4
- compound: "Fc1cccc2c1CN=C(c1ccc3sccc3c1)c1cccn1-2"
  comparative-sign: "="
  result-value: 5.08
- compound: "Cc1cccc2c1-n1cccc1C(c1cc3ccccc3s1)=NC2"
  comparative-sign: "="
  result-value: 5.66
- compound: "FC(F)(F)c1ccc(C2=NCc3c(Cl)cc(Cl)cc3-n3cccc32)cn1"
  comparative-sign: "<"
  result-value: 4.19
- compound: "Clc1ccc2c(c1)-n1cccc1C(c1ccc3ncsc3c1)=NC2"
  comparative-sign: "="
  result-value: 4.41
- compound: "Cn1ccc2ccc(C3=NCc4c(Cl)cccc4-n4cccc43)cc21"
  comparative-sign: "="
  result-value: 4.35
- compound: "Clc1cccc2c1CN=C(c1ccncc1)c1cccn1-2"
  comparative-sign: "<"
  result-value: 4
- compound: "Cc1nc2cc(C3=NCc4c(Cl)cccc4-n4cccc43)ccc2s1"
  comparative-sign: "="
  result-value: 4.88
- compound: "Fc1ccc2oc(C3=NCc4c(Cl)cc(Cl)cc4-n4cccc43)cc2c1"
  comparative-sign: "="
  result-value: 5.31
- compound: "Clc1cc(Cl)c2c(c1)-n1cccc1C(c1ccc3ncsc3c1)=NC2"
  comparative-sign: "="
  result-value: 5.79
- compound: "COc1cccc2cc(C3=NCc4c(C)cccc4-n4cccc43)oc12"
  comparative-sign: "="
  result-value: 4.71
- compound: "FC(F)(F)c1ncc(C2=NCc3c(Cl)cccc3-n3cccc32)cn1"
  comparative-sign: "<"
  result-value: 4.19

---

Tested on: Candida parapsilosis
Assay: Antifungal activity in vitro, resazurin growth inhibition: Candida parapsilosis (B66126)
Assay type: cell-based
Measured Inf. D: Candida parapsilosis B66126, pIC50 of individual entries
measure-name: Inf. D: Candida parapsilosis B66126, pIC50

- compound: "Cc1cc(C2=NCc3c(C)cccc3-n3cccc32)ccn1"
  study-system: "Candida parapsilosis"
  result-value: "<4.49"
- compound: "Cl.Clc1cccc2c1CNC(c1ccc3scc(Cl)c3c1)c1cccn1-2 (racemic)"
  study-system: "Candida parapsilosis"
  result-value: "<4.19"
- compound: "COc1cccc2cc(C3=NCc4ccc(Cl)cc4-n4cccc43)oc12"
  study-system: "Candida parapsilosis"
  result-value: "<4.19"
- compound: "CC(F)(F)c1ccc(C2=NCc3c(F)cccc3-n3cccc32)cn1"
  study-system: "Candida parapsilosis"
  result-value: "<4.19"
- compound: "Clc1cccc2c1CN=C(c1ccc3occ(Cl)c3c1)c1cccn1-2"
  study-system: "Candida parapsilosis"
  result-value: 5.59
- compound: "Br.Clc1ccc2c(c1)CNC(c1ccncc1)c1cccn1-2 (racemic)"
  study-system: "Candida parapsilosis"
  result-value: "<4.19"
- compound: "CCc1ccc(C2=NCc3c(Cl)cc(Cl)cc3-n3cccc32)nc1"
  study-system: "Candida parapsilosis"
  result-value: "<4.49"
- compound: "Cc1ccc2cc(C3=NCc4c(Cl)cc(Cl)cc4-n4cccc43)oc2c1"
  study-system: "Candida parapsilosis"
  result-value: "<4.19"
- compound: "COc1cccc2cc(C3=NCc4cccc(Cl)c4-n4cccc43)oc12"
  study-system: "Candida parapsilosis"
  result-value: "<4.19"
- compound: "FC(F)(F)c1ncc(C2=NCc3ccccc3-n3cccc32)cn1"
  study-system: "Candida parapsilosis"
  result-value: "<4.19"
- compound: "Fc1cccc2cc(C3=NCc4c(Cl)cc(Cl)cc4-n4cccc43)oc12"
  study-system: "Candida parapsilosis"
  result-value: "<4.19"
- compound: "COc1cccc2cc(C3=NCc4c(Cl)cc(Cl)cc4-n4cccc43)oc12"
  study-system: "Candida parapsilosis"
  result-value: "<4.19"
- compound: "Br.CCn1ccc(C2NCc3c(Cl)cccc3-n3cccc32)n1 (racemic)"
  study-system: "Candida parapsilosis"
  result-value: "<4.19"
- compound: "Fc1cc(F)c2c(c1)-n1cccc1C(c1ccc3occ(Cl)c3c1)=NC2"
  study-system: "Candida parapsilosis"
  result-value: "<4.19"
- compound: "Cc1cccc2c1CNC(c1cc3cc(Cl)ccc3o1)c1cccn1-2.Cl (racemic)"
  study-system: "Candida parapsilosis"
  result-value: "<4.19"
- compound: "Cc1cccc2c1CNC(c1ccc(C(F)(F)F)nc1)c1cccn1-2.Cl (racemic)"
  study-system: "Candida parapsilosis"
  result-value: "<4.19"
- compound: "Cl.FC(F)(F)c1ccc(C2NCc3c(Cl)cccc3-n3cccc32)cn1 (racemic)"
  study-system: "Candida parapsilosis"
  result-value: "<4.19"
- compound: "Clc1cccc2c1CN=C(c1nc3ccccc3s1)c1cccn1-2"
  study-system: "Candida parapsilosis"
  result-value: "<4.19"
